Numbers sourced from ChEMBL document CHEMBL1201862.

test system: SK-MEL-28; experiment: NCI tumour cell line growth inhibition, 48 h
Activity calls are given as the source filed them. Rule as the data show it: active = GI50 up to about 1.1 µM and inactive = higher.
quantityMeasured: GI50

>>> recordedvalue("CN1CCN(c2ccc3nc(C4=C(O)C(=O)c5c(nc(CCl)n5C)C4=O)[nH]c3n2)CC1")
"19.3 µM (inactive)"
>>> recordedvalue("O=C(Nc1ccccc1)OCCN=C1c2ccccc2CCc2ccccc21")
"15.4 µM (inactive)"
>>> recordedvalue("c1ccc(CC(Nc2cccnc2)c2ccccc2)cc1 (configuration not stated)")
"31 µM (inactive)"
>>> recordedvalue("COC1=CC(C)C2C[C@H]3O[C@H](O)C[C@H]4C(C)C(=O)C(O)C([C@@]2(C)C1=O)[C@@]34C (some centres not stated)")
"> 100 µM (inactive)"
>>> recordedvalue("C[C@H]1S[C@H](c2c(F)cccc2F)n2c1nc1ccccc12")
"71.3 µM (inactive)"
>>> recordedvalue("C/C=C\\C(CC(=O)NCCC1CN(C(=O)c2ccccc2)c2ccccc21)CC(=O)OC (configuration not stated)")
"> 100 µM (inactive)"
>>> recordedvalue("COc1cccc2c1C(CO)N1C(C#N)C3CC(C(=O)O)C(C1C2)N3C (configuration not stated)")
"1.56 µM (inactive)"

====

system: M14; assay: NCI tumour cell line growth inhibition, 48 h
Active and inactive are the calls of the source. Cut-off read from the data, not from the text of the source: active = GI50 up to about 1.1 µM and inactive = higher. Residues, ends and D or L forms follow the SMILES beside them. *: point of attachment. Cbz = O=C(OCc1ccccc1)*; Boc = CC(C)(C)OC(=O)*; OSu = O=C1CCC(=O)N1O*; Bn = c1ccc(C*)cc1
Item-by-item account of GI50
quantityMeasured: GI50

>>> recordedvalue("CCOc1ccc2c(c1)c(=O)c1c(NCCN(CC)CC)ccc3nnn2c31")
"35.2 µM (inactive)"
>>> recordedvalue("Cc1ccc(NC(=O)CCc2nnc3s/c(=C\\c4cccc([N+](=O)[O-])c4)c(=O)n23)cc1")
"> 100 µM (inactive)"
>>> recordedvalue("COc1cccc(/C=N/NC(=O)CSCC(=O)N/N=C/c2cccc(OC)c2OC)c1OC")
"> 100 µM (inactive)"
>>> recordedvalue("COc1ccccc1/N=N/c1c(O)c(S(=O)(=O)O)cc2cc(S(=O)(=O)O)ccc12")
"> 100 µM (inactive)"
>>> recordedvalue("CCN(CC)c1ccc(/N=N/c2ccc([N+](=O)[O-])cc2OC(=O)/C=C/c2ccccc2)c(OC(=O)/C=C/c2ccccc2)c1")
"12.7 µM (inactive)"
>>> recordedvalue("Cc1ccc(NC(=O)CC2Sc3ccccc3NC2=O)c(C)c1 (centres undefined)")
"12.4 µM (inactive)"
>>> recordedvalue("Cc1cc2c(=O)cc(-c3ccc(C(=O)O)cc3)oc2c(C(N)=O)c1C")
"> 100 µM (inactive)"
>>> recordedvalue("C[C@]12CC[C@H](O)CC1=CC[C@@H]1C2CC[C@]2(C)NC(=O)C(C#N)CC12 (some centres undefined)")
"> 100 µM (inactive)"
>>> recordedvalue("CC(C)(C)OC(=O)NC(Cc1ccc(OCc2ccccc2)cc1)C(=O)NC(CCCCNC(=O)OCc1ccccc1)C(=O)NC(CCCCNC(=O)OCc1ccccc1)C(=O)ON1C(=O)CCC1=O (centres undefined) (Boc-Tyr(Bn)-Lys(Cbz)-Lys(Cbz)-OSu; configuration not given here)")
"> 100 µM (inactive)"

====

system: U-251; assay: NCI tumour cell line growth inhibition, 48 h
The source made the active and inactive calls. Cut-off read from the data, not from the text of the source: active = GI50 up to about 1.1 µM and inactive = higher.
quantityMeasured: GI50

>>> recordedvalue("N#CC1C(=O)Nc2sc(C(=O)c3ccc(Br)cc3)c(N)c2C12CCCCC2 (stereo not given)")
"25.1 µM (inactive)"
>>> recordedvalue("CCO/S(=N/S(=O)(=O)c1ccccc1)c1ccccc1[N+](=O)[O-] (stereo not given)")
"> 100 µM (inactive)"
>>> recordedvalue("CC1CC(=O)Nc2ccc(Cl)cc2N1C(=O)CN1CCC(CCCCN(C)C)CC1 (stereo not given)")
"> 100 µM (inactive)"
>>> recordedvalue("CCCN(CCCCN1C(=O)c2ccccc2C1=O)CC1COc2ccccc2O1 (stereo not given)")
"74 µM (inactive)"
>>> recordedvalue("CC1=C2C(=C[C@H]3[C@]4(C)CCCC(C)(C)[C@H]4CC[C@]34O[C@H]24)OC1=O")
"> 100 µM (inactive)"
